Target: UniProt Q92731
Experiment: Relative binding affinity for human Estrogen receptor beta compared to estradiol (E2)
quantity_kind: RBA (%)
Reply with just the number (in %).

Study these solved cases before continuing.
1) Oc1ccc2c(c1)CC[C@@H]1c3ccc(O)cc3C[C@H](c3ccc(OCCN4CCCCC4)cc3)[C@H]21 ... 0.06
2) Oc1ccc2c(c1)CC[C@@H]1c3ccc(O)cc3CC[C@H]21 ... 71
3) Oc1ccc2c(c1)C[C@@H]1c3ccc(O)cc3CC[C@H]21 ... 63
4) CCC1Cc2cc(O)ccc2C2C(CC)Cc3cc(O)ccc3C12 (stereo unspecified) ... 16

Now let's try a different one.
Ask: Find the measured RBA: item CCC1c2cc(O)ccc2[C@H]2CCc3cc(O)ccc3[C@@H]12 (stereo in doubt; 17a) , target or system UniProt Q92731.
Reply: 300

---

Listed here: items and their measured RBA.
Target: Estrogen receptor beta (Homo sapiens) (UniProt Q92731)
Sequence (Q92731 whole entry): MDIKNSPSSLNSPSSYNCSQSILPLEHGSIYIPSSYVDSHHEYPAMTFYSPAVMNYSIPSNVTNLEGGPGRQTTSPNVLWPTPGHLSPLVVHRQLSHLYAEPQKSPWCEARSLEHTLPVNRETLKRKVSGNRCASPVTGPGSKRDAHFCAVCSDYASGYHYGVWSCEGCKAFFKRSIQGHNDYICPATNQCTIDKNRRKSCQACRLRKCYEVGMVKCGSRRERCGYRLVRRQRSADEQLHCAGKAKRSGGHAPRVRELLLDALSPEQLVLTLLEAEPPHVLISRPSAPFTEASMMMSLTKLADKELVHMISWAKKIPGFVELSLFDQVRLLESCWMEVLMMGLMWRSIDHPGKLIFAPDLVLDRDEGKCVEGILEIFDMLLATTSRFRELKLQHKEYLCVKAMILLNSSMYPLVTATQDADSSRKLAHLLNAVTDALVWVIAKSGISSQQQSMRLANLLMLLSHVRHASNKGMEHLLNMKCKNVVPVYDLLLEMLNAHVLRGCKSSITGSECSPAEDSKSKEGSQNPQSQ
Experiment: Relative binding affinity for human Estrogen receptor beta compared to estradiol (E2)
Reply with just the number (in %).

Study these solved cases before continuing.
1) Oc1ccc2c(c1)CC[C@H]1c3ccc(O)cc3CC[C@@H]21 ... 130
2) Oc1ccc2c(c1)CCC1=C2CCc2cc(O)ccc21 ... 6.5
3) CCC1c2cc(O)ccc2[C@H]2CCc3cc(O)ccc3[C@@H]12 (stereo in doubt; 17b) ... 280
4) Oc1ccc2c(c1)CC[C@@H]1c3ccc(O)cc3[C@H](c3ccc(OCCN4CCCCC4)cc3)[C@H]21 ... 10
5) O=C1c2cc(O)ccc2[C@H]2CCc3cc(O)ccc3[C@@H]12 ... 2

Now let's try a different one.
Ask: Find the recorded RBA belonging to CC[C@@H]1Cc2cc(O)ccc2C2=C1c1ccc(O)cc1C[C@H]2CC and report it.
Reply: 144
